Test system: Wolbachia pipientis
Assay: Anti-Wolbachia Cell-Based Screen
Format: functional
Set-up: scale not given: in the data most compounds retested in dose-response had high values
Conditions: 5 µM
In all, about 48,000 compounds went through this assay and about 13,000 (27%) showed an effect of 50% or more. The list shows a part of the results.
attribute-measured: Percent Effect (%)
Could you give me the number in %? Just the number is fine.

// Percent Effect lookup, key: COCCC(=O)N1CCCC1c1nccnc1Nc1ncccn1 (stereo not given)
132.2

// Percent Effect lookup, key: Cc1cnn(C2CCCN(C(=O)c3ccc(-n4ccnc4)cc3)C2)c1 (stereo not given)
97.92

// Percent Effect lookup, key: Cc1cccc(CN2CCc3[nH]nc(C(=O)N(C)C)c3C2)n1.O=C(O)C(F)(F)F
-6.855

// Percent Effect lookup, key: CN(C)Cc1noc2c1CN(C(=O)c1ccncc1)CC2.O=C(O)C(F)(F)F.O=C(O)C(F)(F)F
-9.47

// Percent Effect lookup, key: CC(=O)N1CCC2(C1)c1ccccc1S(=O)(=O)N2C (stereo not given)
115.8

// Percent Effect lookup, key: Cc1cccc(CN2CCc3[nH]nc(C(=O)N4CCNC(=O)C4)c3C2)n1.O=C(O)C(F)(F)F
-67.35

// Percent Effect lookup, key: Cc1cccc(CN2CCc3onc(CN(C)C)c3C2)n1
101.4

// Percent Effect lookup, key: CCOCC1CN(Cc2ccoc2)Cc2cn(CC3CC3)nc21 (stereo not given)
25.6

// Percent Effect lookup, key: Cc1cnn(C2CCCN(C(=O)c3cccc(Cn4ccnc4)c3)C2)c1 (stereo not given)
6.448

// Percent Effect lookup, key: CCCN1CCC2(C1)c1ccccc1S(=O)(=O)N2C.O=C(O)C(F)(F)F (stereo not given)
-10.43
